Hello, the source for this data is patent US10428140B2, in case you need it.

Attribute: hEphA6-SEAP-: absorbance at 450 nm, percentage with respect to hEphA4-SEAP-His as 100%
Biological target: T1, human EphA6 (Homo sapiens, UniProt Q9UF33)
T1 construct: a protein of the extracellular region of each human Eph receptor fused with the SEAP protein and the His tag; made in house; host or cells: Expi293F cells (culture supernatant)
T1 sequence (Q9UF33 23-550 limits assumed): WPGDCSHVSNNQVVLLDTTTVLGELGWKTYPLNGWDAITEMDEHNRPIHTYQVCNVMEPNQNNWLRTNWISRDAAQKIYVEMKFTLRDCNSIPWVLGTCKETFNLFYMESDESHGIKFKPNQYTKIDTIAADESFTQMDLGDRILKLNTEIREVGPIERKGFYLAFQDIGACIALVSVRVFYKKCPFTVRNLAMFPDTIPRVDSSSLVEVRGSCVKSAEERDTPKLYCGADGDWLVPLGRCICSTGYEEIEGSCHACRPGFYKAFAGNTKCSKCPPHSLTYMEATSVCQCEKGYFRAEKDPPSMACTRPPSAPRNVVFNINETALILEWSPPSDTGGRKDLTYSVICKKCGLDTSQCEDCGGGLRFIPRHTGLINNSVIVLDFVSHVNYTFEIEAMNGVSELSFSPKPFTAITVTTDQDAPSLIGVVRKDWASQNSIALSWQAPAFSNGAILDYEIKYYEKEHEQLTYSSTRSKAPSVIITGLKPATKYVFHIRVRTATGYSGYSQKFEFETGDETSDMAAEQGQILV
Assay: Selectivity ELISA of humanized antibodies for human Eph receptor
Type: binding
Conditions: coated protein 1 nM
Field: value (include unit after the number)

# lookup: hEphA6-SEAP-: absorbance at 450 nm, percentage with respect to hEphA4-SEAP-His as 100% of 144 (antibody, V domains shown, synthetic humanized antibody heavy chain variable region sequence; synthetic humanized antibody light chain variable region sequence) VH: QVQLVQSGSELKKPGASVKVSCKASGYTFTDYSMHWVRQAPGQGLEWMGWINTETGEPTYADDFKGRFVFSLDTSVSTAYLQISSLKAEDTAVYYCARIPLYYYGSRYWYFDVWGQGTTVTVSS VL: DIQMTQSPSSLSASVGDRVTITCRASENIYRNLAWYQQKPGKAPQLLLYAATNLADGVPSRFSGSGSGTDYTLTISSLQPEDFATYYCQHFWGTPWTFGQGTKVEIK
8.1%

As a next step, examine the molecule that follows.
# lookup: hEphA6-SEAP-: absorbance at 450 nm, percentage with respect to hEphA4-SEAP-His as 100% of 160 (antibody, V domains shown, synthetic humanized antibody heavy chain variable region sequence; synthetic humanized antibody light chain variable region sequence) VH: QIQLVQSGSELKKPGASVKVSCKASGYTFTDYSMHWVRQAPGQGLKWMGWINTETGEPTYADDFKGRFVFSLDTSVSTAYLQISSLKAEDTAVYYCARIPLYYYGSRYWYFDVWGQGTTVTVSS VL: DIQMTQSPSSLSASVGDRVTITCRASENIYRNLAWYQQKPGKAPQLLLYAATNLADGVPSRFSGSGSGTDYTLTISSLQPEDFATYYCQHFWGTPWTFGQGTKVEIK
8.7%
